Field: fraction fluorescence in grains. Provide a value for each of the compounds that follow.
Test: clearance of mutant huntingtin inclusions, primary screen, imaging, HeLa Exon1htt(103Q)mCFP, confocal imaging (AID 853);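 also: cells exposed to compound for three days before fixation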
Conditions: aggregate imaging, at 1.5 µM; measured here: aggregate grain fluorescence fraction, stronger effect = lower value
Hit rate of the full screen: of about 47,000 compounds, about 200 (0.43%) were called active. About 1% were inconclusive and are not listed. For the sample, actives were picked, then their nearest neighbours and some compounds at random.

In the examples that follow, each entry is paired with its recorded fraction fluorescence in grains.
Compound structure	fraction fluorescence in grains
O=C(c1ccc2c(c1)OCO2)N1CCOCC1	22
Cc1ccccc1NC(=O)c1cnn(-c2ccccc2)c1NC(=O)c1ccco1	65.2
CCN(CC)S(=O)(=O)c1ccc2c3c(cccc13)C(=O)S2	38.9

Turning now to a further record.
Q) Data request, read-out fraction fluorescence in grains, for c1ccc(Nc2n[nH]nc2-c2ccccc2)cc1
A) 19.1

###

For each record, write down the corresponding fraction fluorescence in grains.
Test: clearance of mutant huntingtin inclusions, primary screen, imaging, HeLa Exon1htt(103Q)mCFP, confocal imaging (AID 853);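 also: cells exposed to compound for three days before fixation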
Settings: aggregate imaging, at 1.5 µM; measured here: aggregate grain fluorescence fraction, stronger effect = lower value
Hit rate of the full screen: of about 47,000 compounds, about 200 (0.43%) were called active. Roughly 1% stayed inconclusive and do not appear here. Many of the other results were omitted from the sample, so actives are more common in it than they were.
Give bare numbers.

Hey, can you go through the list below and give me fraction fluorescence in grains for every item?
1. CCOc1ccccc1C(=O)NC1CC2CCCC(C1)N2Cc1ccccc1 (stereo not given)
2. CCc1c(O)cc2n(c1=O)-c1ccccc1C2(C)C
3. COc1ccc(CNC(=O)C2CCC(CNc3c(N4CCOCC4)c(=O)c3=O)CC2)cc1 (stereo not given)
4. COc1cccc2c(=O)n(CC(=O)N3CCCCCC3)ccc12
5. CCOc1ccc2c(c1)C(c1ccc(C)cc1)=NNC(c1ccc(C)cc1)=N2
6. Cc1c(NC(=O)c2cc(-c3ccc(Cl)s3)nc3ccccc23)c(=O)n(-c2ccccc2)n1C
7. COc1nc(NC2CCCCC2)nc(N2CCCCCC2)n1

A)
1. 14.9
2. 27.7
3. 33
4. 40.9
5. 11
6. 26.1
7. 7.28

###

Test: clearance of mutant huntingtin inclusions, primary screen, imaging, HeLa Exon1htt(103Q)mCFP, confocal imaging (AID 853);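 also: cells exposed to compound for three days before fixation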
Conditions: aggregate imaging, at 1.5 µM, zero = plate's median compound well
Hit rate of the full screen: of about 47,000 compounds, about 200 (0.43%) were called active. Not shown: some 1% with an inconclusive outcome.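 How the source made its calls: active means inhibition of aggregate fluorescence above about 70%, also judged a hit by eye on the cell image (limit read from the data, passing the limit was not always enough); inconclusive means no rule stated for this call; inactive means not judged a hit on image review.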 This is one part of a sample in which actives are shown more often than they occur.
Write down the outcome that applies. Available outcomes: YES = active, NO = inactive

Take a look at these entries with their results.
Compound	Category label
Cc1nnc(SCC(=O)NCCOc2ccc(Cl)cc2)n1-c1ccccc1	NO
CSCC[C@H](NC(=O)NCCc1ccc(F)cc1)C(=O)O	NO
COC(=O)[C@@H](NC(=O)Nc1cc(Cl)ccc1C)C(C)C	NO
COc1cc(C)c(C(C)C)cc1S(=O)(=O)n1ccnc1	NO
Cn1ccs/c1=N\S(=O)(=O)c1ccc(C(C)(C)C)cc1	NO

Q) // param item: CCC(c1nnnn1Cc1ccco1)N(CCc1ccccc1)Cc1cc2cccc(C)c2[nH]c1=O (stereo unspecified) ; yields the recorded call
A) YES

Q) Outcome logged for CCOc1ccccc1C(=O)NC1CC2CCCC(C1)N2Cc1ccccc1 (stereo unspecified) in this assay:
A) NO

Q) Which outcome was entered for the compound O=C(Oc1cccnc1)c1cc2ccccc2oc1=O in this test?
A) NO

Q) Per the assay record, what outcome was assigned to COc1ccccc1NC(=O)CSc1nnc(C)n1CC1CCCO1 (stereo unspecified) ?
A) NO

Q) Hi, do you know how C#CCSc1nnc(-c2sc3ccccc3c2Cl)o1 came out in this test?
A) NO
